test: Phase 1/1b clinical trial: plasma pharmacokinetics of PF-07220060; assay type: in vivo, human; settings: human, plasma, po, 300 mg, 300 mg BID oral monotherapy (Part 1A); C1D1 post first dose; median; read-out: Tmax
readout: Tmax (h)
One number for each entry, in h.

// query Provide one value: measured Tmax of CC(C)n1c(C(C)(C)O)nc2c(F)cc(-c3nc(N[C@@H]4CCOC[C@H]4O)ncc3Cl)cc21
// result 3.8

* * *

assay: Phase 1/1b clinical trial: plasma pharmacokinetics of PF-07220060; assay type: in vivo, human; settings: human, plasma, po, 400 mg BID oral + letrozole (Part 1B); C1D15; geometric mean; read-out: AUCtau
readout: AUC (ng·h/mL)
Give bare numbers, in ng·h/mL.

// query Provide one value: measured AUC of CC(C)n1c(C(C)(C)O)nc2c(F)cc(-c3nc(N[C@@H]4CCOC[C@H]4O)ncc3Cl)cc21
// result 11500
